Measured target: hDAT (Homo sapiens)
Sequence (Q01959 whole entry): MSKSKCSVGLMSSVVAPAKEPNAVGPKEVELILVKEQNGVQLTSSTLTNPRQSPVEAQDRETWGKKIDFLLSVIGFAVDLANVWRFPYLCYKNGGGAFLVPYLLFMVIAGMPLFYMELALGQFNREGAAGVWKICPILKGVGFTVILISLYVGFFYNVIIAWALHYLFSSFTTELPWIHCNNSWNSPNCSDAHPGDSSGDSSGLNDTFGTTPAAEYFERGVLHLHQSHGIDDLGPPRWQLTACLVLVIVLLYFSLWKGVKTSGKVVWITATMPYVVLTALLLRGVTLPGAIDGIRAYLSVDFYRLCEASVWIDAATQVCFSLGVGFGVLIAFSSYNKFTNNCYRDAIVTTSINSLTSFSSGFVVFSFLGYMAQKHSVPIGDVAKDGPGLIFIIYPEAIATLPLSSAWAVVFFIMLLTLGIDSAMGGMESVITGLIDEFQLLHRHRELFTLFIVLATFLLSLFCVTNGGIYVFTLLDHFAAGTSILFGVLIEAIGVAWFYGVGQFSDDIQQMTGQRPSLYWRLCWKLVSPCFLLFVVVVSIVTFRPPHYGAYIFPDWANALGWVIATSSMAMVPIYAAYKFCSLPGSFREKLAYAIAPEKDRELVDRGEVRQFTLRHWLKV
Test method notes: effect on efflux of monoamine neurotransmitters, hDAT
Condition notes: efflux measured as percentage of vehicle, FIG. 1
Quantity name: pIC50
Keep it numeric: pIC50 is minus log10 of the concentration in mol/L.

Incoming: Sample CC(N)CCc1ccccc1Cl (stereo not shown) — what was its pIC50?
Outgoing: 5.07
